Where do these numbers come from? They come from paper PMC8268672.

Tested on: Punta Toro virus
Test summary: CPE reduction assay in Vero cells
Type: cell-based
Experimental parameters: read-out: Antiviral EC50, Punta Toro virus
Readings of EC50 for the listed molecules

Cc1ccc(S(=O)(=O)N2C(=O)CSC2c2ccccc2O)cc1 (stereo not shown) ... > 100 µM
Cc1ccc(S(=O)(=O)N2C(=O)CSC2c2ccccc2F)cc1 (stereo not shown) ... > 100 µM
Cc1ccc(S(=O)(=O)N2C(=O)CSC2c2ccc(C(C)C)cc2)cc1 (stereo not shown) ... > 100 µM
Cc1ccc(S(=O)(=O)N2C(=O)CSC2c2ccc(Cl)cc2)cc1 (stereo not shown) ... > 100 µM
Cc1ccc(S(=O)(=O)N2C(=O)CSC2c2ccc([N+](=O)[O-])cc2)cc1 (stereo not shown) ... > 100 µM

Ask: GET /values?readout=EC50&system=Punta Toro virus&item= Cc1ccc(S(=O)(=O)N2C(=O)CSC2c2ccccc2Cl)cc1 (stereo not shown)
Reply: > 100 µM

Ask: Consider next the molecule Cc1ccc(S(=O)(=O)N2C(=O)CSC2c2cccc(Br)c2)cc1 (stereo not shown) in the same way.
Reply: > 100 µM

---

Test system: Vero cells
Experimental parameters: Vero cell cultures; microscopically detectable alteration of normal cell morphology
Readings of Minimum cytotoxic conc. for the listed compounds

Cc1ccc(S(=O)(=O)N2C(=O)CSC2c2ccc([N+](=O)[O-])cc2)cc1 (stereo not shown) [5q] ... >100 µM
Cc1ccc(S(=O)(=O)N2C(=O)CSC2c2ccccc2O)cc1 (stereo not shown) [5k] ... >100 µM
Cc1ccc(S(=O)(=O)N2C(=O)CSC2c2ccccc2[N+](=O)[O-])cc1 (stereo not shown) [5o] ... >100 µM
Cc1ccc(S(=O)(=O)N2C(=O)CSC2c2cccc(Br)c2)cc1 (stereo not shown) [5c] ... >100 µM
Cc1ccc(S(=O)(=O)N2C(=O)CSC2c2ccccc2Cl)cc1 (stereo not shown) [5e] ... >100 µM

Ask: Fill blank: measured Minimum cytotoxic conc. of the compound COc1c(C)c2c(c(O)c1C/C=C(\C)CCC(=O)O)C(=O)OC2 [Mycophenolic acid, mycophenolic acid, reference compound] is ____.
Reply: >100 µM

Ask: Consider next the compound Cc1ccc(S(=O)(=O)N2C(=O)CSC2c2ccc(C(C)C)cc2)cc1 (stereo not shown) [5n] in the same way.
Reply: >100 µM

Ask: Consider next the compound Cc1ccc(S(=O)(=O)N2C(=O)CSC2c2ccccc2)cc1 (stereo not shown) [5a] in the same way.
Reply: >100 µM

Ask: Consider next the compound Cc1ccc(S(=O)(=O)N2C(=O)CSC2c2ccc(Cl)cc2)cc1 (stereo not shown) [5g] in the same way.
Reply: >100 µM

Ask: Consider next the compound Cc1ccc(S(=O)(=O)N2C(=O)CSC2c2cccc([N+](=O)[O-])c2)cc1 (stereo not shown) [5p] in the same way.
Reply: >100 µM

Ask: Consider next the compound Cc1ccc(S(=O)(=O)N2C(=O)CSC2c2ccccc2F)cc1 (stereo not shown) [5h] in the same way.
Reply: >100 µM

Ask: Consider next the compound NC(=O)c1ncn([C@@H]2O[C@H](CO)[C@@H](O)[C@H]2O)n1 [Ribavirin, reference compound] in the same way.
Reply: >250 µM

Ask: Consider next the compound Cc1ccc(S(=O)(=O)N2C(=O)CSC2c2ccc(O)cc2)cc1 (stereo not shown) [5m] in the same way.
Reply: >100 µM
